# tested-target: CETP (Homo sapiens, UniProt P11597)
# Construct: CETP is obtained in partially purified form from human plasma by differential centrifugation and column chromatography and used for the test; from tissue; host or cells: human plasma
# Sequence (P11597 18-493): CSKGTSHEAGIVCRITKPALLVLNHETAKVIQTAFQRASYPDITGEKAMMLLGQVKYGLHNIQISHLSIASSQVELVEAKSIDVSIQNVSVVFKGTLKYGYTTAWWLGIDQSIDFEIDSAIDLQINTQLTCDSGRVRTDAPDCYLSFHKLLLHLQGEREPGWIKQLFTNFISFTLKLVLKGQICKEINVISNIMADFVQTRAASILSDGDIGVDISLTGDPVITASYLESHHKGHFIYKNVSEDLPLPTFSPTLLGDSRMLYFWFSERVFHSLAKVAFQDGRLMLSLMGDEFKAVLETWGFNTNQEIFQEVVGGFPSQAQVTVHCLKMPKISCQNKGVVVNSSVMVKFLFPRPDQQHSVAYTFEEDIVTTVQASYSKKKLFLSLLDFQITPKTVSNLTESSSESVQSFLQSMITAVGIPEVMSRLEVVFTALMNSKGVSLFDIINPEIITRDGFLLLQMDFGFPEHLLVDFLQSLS
# assay-name: CETP fluorescence test with enriched CETP
# Assay type: biochemical
# cond: enriched CETP fraction from human plasma; transfer of fluorescent cholesterol ester between liposomes; 37° C. for 4 h
measured-metric: IC50 (nM)
Entry rule: numbers only, all in nM.

# annotated cases, reported IC50 shown
>>> recorded_value("CC1(C)C[C@H](O)c2c(cc(C3CCCC3)c([C@@H](O)c3ccc(C(F)(F)F)cc3)c2-c2ccc(F)cc2)O1 [Example 1]")
340
>>> recorded_value("CC(C)c1cc2c(c(-c3ccc(F)cc3)c1C(=O)c1ccc(OC(F)(F)F)cc1)[C@@H](O)CC(C)(C)O2 [Example 10]")
93
>>> recorded_value("CC(C)c1cc2c(c(-c3ccc(F)cc3)c1[C@@H](O)c1ccc(C(C)(C)C)cc1)[C@@H](O)CC1(CCC1)O2 [Example 34]")
14
>>> recorded_value("CC(C)c1cc2c(c(-c3ccc(F)cc3)c1C(=O)c1ccc(C(C)(C)C)cc1)[C@@H](O)CC1(CCC1)O2 [Example 33]")
59
>>> recorded_value("CC(C)c1cc2c(c(-c3ccc(F)cc3)c1C(F)c1ccc(OC(F)(F)F)cc1)[C@@H](O)CC1(CCC1)O2 (mixture of isomers) [Example 40]")
50
>>> recorded_value("CC(C)c1cc2c(c(C3=CCCCC3)c1[C@@H](O)c1ccc(C(F)(F)F)cc1)[C@@H](O)CC(C)(C)O2 [Example 20]")
49

Now look at this one.
Lab note: measured IC50 of CC(C)c1cc2c(c(-c3ccc(F)cc3)c1C(=O)c1ccc(C(C)(C)C)cc1)[C@@H](O)CC(C)(C)O2 [Example 14] was 176
